system: A673/TR/shEF; assay: cell viability (LOESS-normalised, relative to median of negative controls) (log2 ratio); higher = more viable cells (less compound effect), active = hit call of the paper (over 3 MAD below the median); settings: 0.25 µM; library screen: screen1; EWS-FLI1 expression: low (doxycycline-induced shRNA knockdown); treatment time: 72 h
About 300 (9.4%) of roughly 3,200 compounds showed activity. The full list was thinned out, with actives kept by preference.
Catalogue of compounds with associated cell viability (log2)
Form rule: numeric answer, no unit written next to it.

| COMPOUND | cell viability (log2) |
| --- | --- |
| Brc1ccccc1CN1CCN(Cc2ccco2)CC1 | 0.0476 |
| CO[C@H]1C=C[C@@]23c4cc5c(cc4CN(C[C@@H]2O)[C@H]3C1)OCO5 | 0.0269 |
| CC(=O)OC1CCC2(C)C3=C(CC[C@H]2C1(C)C)[C@@]1(C)CC[C@@H]([C@@H](C)CCC=C(C)C)[C@]1(C)CC3 (stereo not given in full) | -0.000522 |
| Cc1cc(N)c2ccccc2[n+]1CCCCCCCCCC[n+]1c(C)cc(N)c2ccccc21 | 0.0436 |
| O=C1c2ccc(O)cc2OC(c2cc(O)c(O)c(O)c2)C1O (stereo not given) | 0.0484 |
| CCOc1cccc(=O)c2c(C)[nH]c(C)c12 | 0.134 |

Query string: Quick check: cell viability (log2) of Cc1ccc(C(C)C)cc2c(C)ccc1-2 ?
Result string: -0.0467

Query string: How about this compound: Nc1ncnc2c1ncn2[C@H]1C[C@H](O)[C@@H](CO)O1
Result string: 0.137

Query string: How about this compound: COc1ccc(-c2coc3c(OC)c(OC)cc(OC)c3c2=O)cc1
Result string: 0.0693

Query string: How about this compound: COC(=O)c1c(C)cc(OC(=O)c2c(C)cc(O)c(CO)c2O)c(C)c1O
Result string: 0.0318

Query string: How about this compound: CC1(C)CC[C@]2(C(=O)O)[C@H](O)C[C@]3(C)C(=CC[C@@H]4[C@@]5(C)CC[C@H](O)C(C)(C)[C@@H]5CC[C@]43C)[C@@H]2C1
Result string: 0.0342

Query string: How about this compound: COc1ccc2c(c1)OC[C@@H](Cc1ccc(OC)c(OC)c1)[C@H]2O
Result string: -0.01

Query string: How about this compound: O=C1C(CC[S+]([O-])c2ccccc2)C(=O)N(c2ccccc2)N1c1ccccc1 (stereo not given)
Result string: 0.158

Query string: How about this compound: CC(=O)/C=C/C1C(C)(O)CCC2C(C)(C)CCCC21C (stereo not given)
Result string: 0.136

All values here come from the supplement of paper PMC6089552.
